For reference, Kd measured on UniProt Q2M2I8:
Just the number in µM, nothing appended.

Form field Kd, entry Oc1c2ccccc2c2c3c(cccc13)N=N2 [SP-600125] : 0.035

Form field Kd, entry CCOc1cc2ncc(C#N)c(Nc3ccc(F)c(Cl)c3)c2cc1NC(=O)/C=C/CN(C)C [PELITINIB] : 2.3

====

measurementTarget: Aurora kinase A (Homo sapiens)
Sequence (O14965 whole entry): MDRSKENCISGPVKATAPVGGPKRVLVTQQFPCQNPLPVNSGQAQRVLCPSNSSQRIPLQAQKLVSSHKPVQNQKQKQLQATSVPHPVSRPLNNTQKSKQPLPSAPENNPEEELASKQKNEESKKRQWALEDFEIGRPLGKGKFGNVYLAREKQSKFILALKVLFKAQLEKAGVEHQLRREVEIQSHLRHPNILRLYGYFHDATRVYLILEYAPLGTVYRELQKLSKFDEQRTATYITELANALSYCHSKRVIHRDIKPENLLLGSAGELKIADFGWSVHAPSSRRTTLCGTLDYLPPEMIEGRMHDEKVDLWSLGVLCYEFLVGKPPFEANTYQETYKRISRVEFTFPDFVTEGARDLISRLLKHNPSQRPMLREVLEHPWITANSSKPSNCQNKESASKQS
measuredEndpoint: pKd
// returns pKd (minus log10 of molar concentration), number only

The reported Aurora kinase A (Homo sapiens) pKd of `Oc1c2ccccc2c2c3c(cccc13)N=N2` is 6.01

====

measuredEndpoint: Kd
# answer = value followed by unit

The reported UniProt:Q9HAZ1 Kd of `Oc1c2ccccc2c2c3c(cccc13)N=N2` is 0.26 µM

====

measurementTarget: Vascular endothelial growth factor receptor 2 (Homo sapiens, UniProt P35968)
Sequence (P35968 whole entry): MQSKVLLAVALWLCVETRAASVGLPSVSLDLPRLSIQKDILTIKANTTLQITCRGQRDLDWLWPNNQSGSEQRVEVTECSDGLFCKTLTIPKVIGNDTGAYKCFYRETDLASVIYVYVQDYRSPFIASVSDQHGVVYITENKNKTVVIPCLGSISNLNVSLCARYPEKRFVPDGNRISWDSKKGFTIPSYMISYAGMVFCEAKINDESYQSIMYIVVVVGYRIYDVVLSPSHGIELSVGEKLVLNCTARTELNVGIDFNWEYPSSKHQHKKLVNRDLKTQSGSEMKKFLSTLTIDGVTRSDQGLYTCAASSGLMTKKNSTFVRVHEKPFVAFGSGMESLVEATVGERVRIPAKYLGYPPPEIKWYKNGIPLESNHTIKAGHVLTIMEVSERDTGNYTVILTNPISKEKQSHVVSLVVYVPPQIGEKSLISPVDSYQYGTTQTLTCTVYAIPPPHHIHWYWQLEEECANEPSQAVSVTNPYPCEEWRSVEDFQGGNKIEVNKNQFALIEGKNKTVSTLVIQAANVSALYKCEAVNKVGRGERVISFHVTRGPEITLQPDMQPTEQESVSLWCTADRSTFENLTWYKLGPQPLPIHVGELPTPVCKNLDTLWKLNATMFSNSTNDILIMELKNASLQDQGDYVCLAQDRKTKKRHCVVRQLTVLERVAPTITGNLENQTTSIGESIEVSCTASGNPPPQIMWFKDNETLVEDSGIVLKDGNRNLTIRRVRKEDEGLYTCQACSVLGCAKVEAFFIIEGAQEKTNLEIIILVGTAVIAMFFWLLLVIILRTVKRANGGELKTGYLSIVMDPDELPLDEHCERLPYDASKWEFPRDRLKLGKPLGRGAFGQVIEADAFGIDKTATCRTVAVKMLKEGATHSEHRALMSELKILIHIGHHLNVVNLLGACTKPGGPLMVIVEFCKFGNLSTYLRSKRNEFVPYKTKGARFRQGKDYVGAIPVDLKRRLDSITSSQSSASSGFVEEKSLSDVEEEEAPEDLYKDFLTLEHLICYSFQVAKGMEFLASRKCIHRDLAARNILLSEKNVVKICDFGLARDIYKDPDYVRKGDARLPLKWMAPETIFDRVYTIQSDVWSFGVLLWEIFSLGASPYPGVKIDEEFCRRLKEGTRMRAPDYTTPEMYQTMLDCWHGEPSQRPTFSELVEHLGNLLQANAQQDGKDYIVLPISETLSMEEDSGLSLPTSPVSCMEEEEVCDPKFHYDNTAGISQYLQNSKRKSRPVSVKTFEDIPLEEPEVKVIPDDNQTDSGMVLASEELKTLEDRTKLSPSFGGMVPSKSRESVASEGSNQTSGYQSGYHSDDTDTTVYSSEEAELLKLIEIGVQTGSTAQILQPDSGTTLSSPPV
measuredEndpoint: Kd

Form field Kd, entry `Cc1ccc(NC(=O)c2ccc(CN3CCN(C)CC3)cc2)cc1Nc1nccc(-c2cccnc2)n1` : Not Active

Form field Kd, entry `C#Cc1cccc(Nc2ncnc3cc(OCCOC)c(OCCOC)cc23)c1` : Not Active

Form field Kd, entry `Oc1c2ccccc2c2c3c(cccc13)N=N2` : Not Active

====

For reference, Kd measured on Dual specificity protein kinase CLK3 (Homo sapiens, UniProt P49761):

The reported Dual specificity protein kinase CLK3 (Homo sapiens, UniProt P49761) Kd of `O=c1ncn2nc(Sc3ccc(F)cc3F)ccc2c1-c1c(Cl)cccc1Cl` is Not Active

The reported Dual specificity protein kinase CLK3 (Homo sapiens, UniProt P49761) Kd of `CC[C@H](CO)Nc1nc(NCc2ccccc2)c2ncn(C(C)C)c2n1` is Not Active

The reported Dual specificity protein kinase CLK3 (Homo sapiens, UniProt P49761) Kd of `Oc1ccc(-c2nc(-c3ccc(F)cc3)c(-c3ccncc3)[nH]2)cc1` is Not Active

The reported Dual specificity protein kinase CLK3 (Homo sapiens, UniProt P49761) Kd of C[S+]([O-])c1ccc(-c2nc(-c3ccc(F)cc3)c(-c3ccncc3)[nH]2)cc1 (stereo unspecified) is Not Active

The reported Dual specificity protein kinase CLK3 (Homo sapiens, UniProt P49761) Kd of `Oc1c2ccccc2c2c3c(cccc13)N=N2` is Not Active

We next turn to a different molecule, shown below.
The reported Dual specificity protein kinase CLK3 (Homo sapiens, UniProt P49761) Kd of `C#Cc1cccc(Nc2ncnc3cc(OCCOC)c(OCCOC)cc23)c1` is Not Active

All figures here come from ChEMBL document CHEMBL1144455.
